- test-summary: Stability tests of analytes in rat plasma QC samples
- Type: in vitro ADME
- test-parameters: rat plasma, nominal conc. 100 nM
In plain terms, low Short-term stability at room temperature for 6 h, RE, meaning strictly below -10%, gives condition met, and everything else gives condition not met.

{"compound": "CC(C)=CCC[C@](C)(O[C@@H]1O[C@H](CO[C@@H]2O[C@H](CO)[C@@H](O)[C@H](O)[C@H]2O)[C@@H](O)[C@H](O)[C@H]1O)[C@H]1CC[C@]2(C)[C@@H]1[C@H](O)C[C@@H]1[C@@]3(C)CC[C@H](O[C@@H]4O[C@H](CO)[C@@H](O)[C@H](O)[C@H]4O[C@@H]4O[C@H](CO)[C@@H](O)[C@H](O)[C@H]4O)C(C)(C)[C@@H]3CC[C@]12C [Compound D5, Ginsenoside Rb1]", "assigned-class": "condition met"}
{"compound": "CC(C)(O)[C@@H]1CC[C@](C)([C@H]2[C@@H](O)C[C@@]3(C)[C@@H]4C[C@H](O)[C@H]5C(C)(C)[C@@H](O[C@@H]6OC[C@@H](O)[C@H](O)[C@H]6O[C@@H]6O[C@H](CO)[C@@H](O)[C@H](O)[C@H]6O)CC[C@@]56C[C@@]46CC[C@]23C)O1 [Compound B3, Astragaloside III]", "assigned-class": "condition met"}
{"compound": "CC(C)=CCC[C@](C)(O[C@@H]1O[C@H](CO)[C@@H](O)[C@H](O)[C@H]1O)[C@H]1CC[C@]2(C)[C@@H]1[C@H](O)C[C@@H]1[C@@]3(C)CC[C@H](O)C(C)(C)[C@@H]3[C@@H](O[C@@H]3O[C@H](CO)[C@@H](O)[C@H](O)[C@H]3O[C@@H]3OC[C@@H](O)[C@H](O)[C@H]3O)C[C@]12C [Compound C8, Notoginsenoside R1]", "assigned-class": "condition met"}
{"compound": "CC(C)=CCC[C@](C)(O)[C@H]1CC[C@]2(C)[C@@H]1[C@H](O)C[C@@H]1[C@@]3(C)CC[C@H](O)C(C)(C)[C@@H]3[C@@H](O[C@@H]3O[C@H](CO)[C@@H](O)[C@H](O)[C@H]3O)C[C@]12C [Compound C1, Ginsenoside Rh1]", "assigned-class": "condition met"}
{"compound": "O=C1CCC[C@@H]2[C@H]3CCCN4CCC[C@@H](CN12)[C@@H]34 [Compound A1, Matrine]", "assigned-class": "condition not met"}
{"compound": "CC(C)=CCC[C@](C)(O)[C@H]1CC[C@]2(C)[C@@H]1[C@H](O)C[C@@H]1[C@@]3(C)CC[C@H](O)C(C)(C)[C@@H]3[C@@H](O[C@@H]3O[C@H](CO)[C@@H](O)[C@H](O)[C@H]3O[C@@H]3O[C@H](CO)[C@@H](O)[C@H](O)[C@H]3O)C[C@]12C [Compound C7, Ginsenoside Rf]", "assigned-class": "condition met"}
{"compound": "O=C1C=CC[C@@H]2[C@H]3CCC[N+]4([O-])CCC[C@@H](CN12)[C@@H]34 (some centres unmarked) [Compound A2, Oxysophocarpine]", "assigned-class": "condition not met"}
{"compound": "CC(C)=CCC[C@](C)(O[C@@H]1O[C@H](CO[C@@H]2O[C@@H](CO)[C@H](O)[C@H]2O)[C@@H](O)[C@H](O)[C@H]1O)[C@H]1CC[C@]2(C)[C@@H]1[C@H](O)C[C@@H]1[C@@]3(C)CC[C@H](O[C@@H]4O[C@H](CO)[C@@H](O)[C@H](O)[C@H]4O[C@@H]4O[C@H](CO)[C@@H](O)[C@H](O)[C@H]4O)C(C)(C)[C@@H]3CC[C@]12C [Compound D3, Ginsenoside Rc]", "assigned-class": "condition met"}
{"compound": "CC(C)=CCC[C@](C)(O[C@@H]1O[C@H](CO)[C@@H](O)[C@H](O)[C@H]1O)[C@H]1CC[C@]2(C)[C@@H]1[C@H](O)C[C@@H]1[C@@]3(C)CC[C@H](O[C@@H]4O[C@H](CO)[C@@H](O)[C@H](O)[C@H]4O[C@@H]4O[C@H](CO)[C@@H](O)[C@H](O)[C@H]4O)C(C)(C)[C@@H]3CC[C@]12C [Compound D2, Ginsenoside Rd]", "assigned-class": "condition not met"}
{"compound": "CC(C)=CCC[C@](C)(O[C@@H]1O[C@H](CO[C@@H]2OC[C@H](O)[C@H](O)[C@H]2O)[C@@H](O)[C@H](O)[C@H]1O)[C@H]1CC[C@]2(C)[C@@H]1[C@H](O)C[C@@H]1[C@@]3(C)CC[C@H](O[C@@H]4O[C@H](CO)[C@@H](O)[C@H](O)[C@H]4O[C@@H]4O[C@H](CO)[C@@H](O)[C@H](O)[C@H]4O)C(C)(C)[C@@H]3CC[C@]12C [Compound D4, Ginsenoside Rb2]", "assigned-class": "condition met"}
{"compound": "CC(C)=CCC[C@](C)(O)[C@H]1CC[C@]2(C)[C@@H]1[C@H](O)C[C@@H]1[C@@]3(C)CC[C@H](O)C(C)(C)[C@@H]3[C@@H](O[C@@H]3O[C@H](CO)[C@@H](O)[C@H](O)[C@H]3O[C@@H]3O[C@@H](C)[C@H](O)[C@@H](O)[C@H]3O)C[C@]12C [Compound C5, Ginsenoside Rg2]", "assigned-class": "condition met"}
